Let's look at some molecules and their measured half-life at 1 µM.
- MEASUREMENT NOTES: Stability of compound in human plasma assessed as half life at 1 uM incubated for 120 min by LC-MS/MS analysis
- Assay type: ADME, cell-free

Here is how some molecules turned out for half-life at 1 µM.
SMILES INPUT	TEST RESULT
COc1cc(/C=C/C(=O)OC[C@H](C)CN(C)CCCCCCCOC(=O)c2c3ccccc3cc3ccccc23)cc(OC)c1OC	≥ 4 h
COc1cc(/C=C/C(=O)OC[C@@H](C)CN(C)CCCCCOC(=O)c2c3ccccc3cc3ccccc23)cc(OC)c1OC	≥ 4 h
COc1cc(/C=C/C(=O)OC[C@H](C)CN(C)CCCOC(=O)c2c3ccccc3cc3ccccc23)cc(OC)c1OC	≥ 4 h

IN: Any idea what its half-life at 1 µM is? The molecule is COc1cc(/C=C/C(=O)OCCCN(C)C[C@@H](C)COC(=O)c2cc(OC)c(OC)c(OC)c2)cc(OC)c1OC
OUT: 0.9 h
